Test system: Calf thymus DNA
Experiment: Binding affinity to calf thymus DNA assessed as change in melting temperature after 4 hrs
Format: nucleic-acid assay
Conditions: Bos taurus
measured.attribute: ΔTm (°C)
Write it as a number; the unit °C goes unstated.

Request: Could you tell me which ΔTm is on file for C=Cc1ccc(C2=CN3C(=O)c4cc(OC)c(OC)cc4N=C[C@@H]3C2)cc1 ?
Response: 9

Request: Could you tell me which ΔTm is on file for COc1cc2c(cc1OC)C(=O)N1C=C(c3c(C)cccc3C)C[C@H]1C=N2 ?
Response: 0.5

Request: Could you tell me which ΔTm is on file for COc1cc2c(cc1OC)C(=O)N1C=C(c3ccccc3)C[C@H]1C=N2 ?
Response: 10.6

Request: Could you tell me which ΔTm is on file for COc1cc2c(cc1OC)C(=O)N1C=C(c3ccc4ccccc4c3)C[C@H]1C=N2 ?
Response: 15.4

Request: Could you tell me which ΔTm is on file for COc1cc2c(cc1OC)C(=O)N1C=C(c3ccc(N(C)C)cc3)C[C@H]1C=N2 ?
Response: 7.6
